PBM binding z-score listing for selected sequences.
- Tested on: RARb:RXRa (NR concentration 270 nM, RXRa partner concentration 90 nM)
- protocol: PBM binding z-score (relative to random genomic background probes); higher = stronger binding; sequences stand for … in GC…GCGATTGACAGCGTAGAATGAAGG

entry sequence: GCTATTAGTTGAAAGGGTAACCGAATGATTCTCG
PBM binding z-score: 0.813
--
entry sequence: TGTCAAAGTTCAAAGGCAACGTAAGTATCCACAC
PBM binding z-score: 4.97
--
entry sequence: CCTGCTAGGTCATGGTCAGCTCATCTACAGTATG
PBM binding z-score: 4.08
--
entry sequence: CCTACTGGGCAATTCAGAGGTCATTGATCATATG
PBM binding z-score: 2.82
--
entry sequence: CCAGACAGGTGAGAAGGTAAATCAGCCTCGATTA
PBM binding z-score: 0.508
--
entry sequence: CCGACTGAGGCAAAGGTTACCATACTCAGTACGA
PBM binding z-score: 1.78
--
entry sequence: TCTTGTAGACCAATAGAGGTTAAGAAAGTGCGCT
PBM binding z-score: 1.01
--
entry sequence: AAATGTAGGTTAGCTGGGGTCATTCAGACTAGGC
PBM binding z-score: 3.28
--
entry sequence: TCATATAGTTAAAAGGTGAAAGTCGGTGTGGTAA
PBM binding z-score: 2.02
--
entry sequence: GCTGCTAGGTCAACAGATGGTCAGCTAAAGCTCG
PBM binding z-score: 3.97
--
entry sequence: AATGCAGGGTCACTAGGCCAGAGTAGGTACGAAT
PBM binding z-score: 4.13
--
entry sequence: TCTTGTAGATCAAGCCGGTTAAGAAAGCCTGAGT
PBM binding z-score: 0.123
--
entry sequence: CGAACAAGGGCATGAGTTGATAGCAAATGCCGAT
PBM binding z-score: 2.02
--
entry sequence: TAGCATAGGTCATGGGCCAGTATACCACGCGAAC
PBM binding z-score: 4.41
--
entry sequence: GCTAGTTGGTGAGTAAAAGGTCACACACCGGTCG
PBM binding z-score: 4.05
--
entry sequence: CCTACTGGGCCATCAGGTCATTGCTATCAACGTT
PBM binding z-score: 2.35
--
entry sequence: TGAATGAGGTTATAAGCTCAGGGAACGTTGCAAA
PBM binding z-score: 1.04
--
entry sequence: CCGACTGCGGCATAAGGTTACCATAAGCCAGCCC
PBM binding z-score: 0.791
--
entry sequence: CCTAGTTGGTCAAGAGGTCACACACCGGATATGA
PBM binding z-score: 4.83
--
entry sequence: GGAACGAGGGCATTCTAGTTGATAGCATGGCGAT
PBM binding z-score: 1.58
--
entry sequence: CGTCCAAGGTCATAGAAGGTCAGTGAAGACAGAT
PBM binding z-score: 5.41
--
entry sequence: CCTACCGGGCCATCAGGTCATTGATATCAACGTT
PBM binding z-score: 2.21
--
entry sequence: CCTACTGGGCCAAAGGTCATTGGTTCCAATGCTC
PBM binding z-score: 4.51
--
entry sequence: ACAGACAGGTTAGTGAAGGTAACTCAGCTGGACG
PBM binding z-score: 0.755
--
entry sequence: ATCTCTAGGTAACAAGTTCAGTGAGAGAGAGGAC
PBM binding z-score: 1.75
--
entry sequence: CCGACTGGGGCAATGGTTACCATACTCAGTACGA
PBM binding z-score: 0.161
